// provenance: patent US20100144645A1

# test-name: Oral bioavailability of hydrocodone conjugates (plasma hydrocodone plus hydromorphone)
# experimental-parameters: oral, rats; relative to hydrocodone
Residues, ends and D or L forms follow the SMILES beside them. *: point of attachment. X1 = COc1ccc2c3c1OC1C(O*)=CCC4[C@@H](C2)N(C)CC[C@]314
observation-type: bioavailabiltty (% HC) oral AUC

[in] Record request: bioavailabiltty (% HC) oral AUC value, item CC[C@H](C)[C@H](NC(=O)[C@H](CC(C)C)NC(=O)[C@@H]1CCCN1)C(=O)OC1=CCC2[C@H]3Cc4ccc(OC)c5c4[C@@]2(CCN3C)C1O5 (stereo partly drawn) [Pro-Leu-Ile-HC]
[out] 141 % HC

[in] Input CC[C@H](C)[C@H](NC(=O)[C@H](Cc1ccc(O)cc1)NC(=O)[C@@H](N)Cc1ccc(O)cc1)C(=O)OC1=CCC2[C@H]3Cc4ccc(OC)c5c4[C@@]2(CCN3C)C1O5 (stereo partly drawn) [Tyr-Tyr-Ile-HC]
[out] 145 % HC

[in] Input CC[C@H](C)[C@H](NC(=O)[C@H](CC(=O)O)NC(=O)[C@H](CC(=O)O)NC(=O)[C@H](CCC(=O)O)NC(=O)[C@@H](N)CCC(=O)O)C(=O)OC1=CCC2[C@H]3Cc4ccc(OC)c5c4[C@@]2(CCN3C)C1O5 (stereo partly drawn) [Glu2-Asp2-Ile-HC] (H-EEDDI-X1)
[out] 108 % HC

[in] Input CC[C@H](C)[C@H](NC(=O)[C@H](CCCCN)NC(=O)[C@@H](N)CCCCN)C(=O)OC1=CCC2[C@H]3Cc4ccc(OC)c5c4[C@@]2(CCN3C)C1O5 (stereo partly drawn) [Lys-Lys-Ile-HC]
[out] 80 % HC

[in] Input CC[C@H](C)[C@H](NC(=O)[C@H](CCC(=O)O)NC(=O)[C@H](CCC(=O)O)NC(=O)CNC(=O)CN)C(=O)OC1=CCC2[C@H]3Cc4ccc(OC)c5c4[C@@]2(CCN3C)C1O5 (stereo partly drawn) [Gly2-Glu2-Ile-HC] (H-GGEEI-X1)
[out] 96 % HC

[in] Input CC[C@H](C)[C@H](NC(=O)[C@@H]1CCCN1)C(=O)N[C@H](C(=O)OC1=CCC2[C@H]3Cc4ccc(OC)c5c4[C@@]2(CCN3C)C1O5)[C@@H](C)CC (stereo partly drawn) [Pro-Ile-Ile-HC]
[out] 104 % HC

[in] Input COc1ccc2c3c1OC1C(OC(=O)[C@H](Cc4ccccc4)NC(=O)[C@H](Cc4ccccc4)NC(=O)[C@H](Cc4ccccc4)NC(=O)[C@H](CCC(=O)O)NC(=O)[C@@H](N)CCC(=O)O)=CCC4[C@@H](C2)N(C)CC[C@]314 (stereo partly drawn) [Glu2-Phe3-HC, Glu2-Phe3-Hydrocodone] (H-EEFFF-X1)
[out] 83 % HC

[in] Input CC[C@H](C)[C@H](NC(=O)[C@H](CCC(=O)O)NC(=O)[C@@H](N)CCC(=O)O)C(=O)OC1=CCC2[C@H]3Cc4ccc(OC)c5c4[C@@]2(CCN3C)C1O5 (stereo partly drawn) [Glu-Glu-Ile-HC]
[out] 83 % HC

[in] Input CC[C@H](C)[C@H](NC(=O)[C@H](CC(=O)O)NC(=O)[C@H](CC(=O)O)NC(=O)[C@H](CCCCN)NC(=O)[C@@H](N)CCCCN)C(=O)OC1=CCC2[C@H]3Cc4ccc(OC)c5c4[C@@]2(CCN3C)C1O5 (stereo partly drawn) [Lys2-Asp2-Ile-HC] (H-KKDDI-X1)
[out] 90 % HC

[in] Input COc1ccc2c3c1OC1C(OC(=O)[C@H](Cc4ccccc4)NC(=O)CNC(=O)CNC(=O)[C@H](CCC(=O)O)NC(=O)[C@@H](N)CCC(=O)O)=CCC4[C@@H](C2)N(C)CC[C@]314 (stereo partly drawn) [Glu2-Gly2-Phe-HC] (H-EEGGF-X1)
[out] 110 % HC

[in] Input CC[C@H](C)[C@H](NC(=O)[C@@H]1CCCN1C(=O)[C@@H]1CCCN1C(=O)[C@H](Cc1ccc(O)cc1)NC(=O)[C@@H](N)Cc1ccc(O)cc1)C(=O)OC1=CCC2[C@H]3Cc4ccc(OC)c5c4[C@@]2(CCN3C)C1O5 (stereo partly drawn) [Tyr2-Pro2-Ile-HC] (H-YYPPI-X1)
[out] 218 % HC

[in] Input COc1ccc2c3c1OC1C(OC(=O)[C@H](Cc4ccccc4)NC(=O)[C@@H]4CCCN4C(=O)[C@@H](N)CC(C)C)=CCC4[C@@H](C2)N(C)CC[C@]314 (stereo partly drawn) [Leu-Pro-Phe-HC]
[out] 106 % HC
